- Test system: S. enterica typhimurium tolC KO;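 further: active when median AUC fell below 0.1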
- Assay info: growth AUC normalised to DMSO control (median) (fraction of control); higher = less growth inhibition, active = hit call of the paper;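 active = normalised median growth AUC below 0.1 of DMSO control; inactive = AUC 0.1 or higher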
- Recorded conditions: 20 µM
Where a name gives a salt, the structure may show the parent alone.
Outcomes: True for active, False for inactive

[[record]]
compound = "CN1CCCN=C1/C=C/c1cccs1 [Pyrantel tartrate]"
label_value = "False"

[[record]]
compound = "CC[N+]1(CC)CCC(=C(c2ccccc2)c2ccccc2)C1C (stereo unspecified) [Prifinium Bromide]"
label_value = "False"

[[record]]
compound = "O=C(O)CCNC(=O)c1ccccc1"
label_value = "False"

[[record]]
compound = "Cc1noc(NS(=O)(=O)c2ccc(N)cc2)c1C"
label_value = "False"

[[record]]
compound = "Clc1ccc(Nc2nnc(Cc3ccncc3)c3ccccc23)cc1"
label_value = "False"

[[record]]
compound = "N=C(N)NC(=N)NCCc1ccccc1 [Phenformin hydrochloride]"
label_value = "False"

[[record]]
compound = "CC(C(=O)O)c1ccc(N2CC=CC2)c(Cl)c1 (stereo unspecified)"
label_value = "False"

[[record]]
compound = "CCN1CCN(c2cc3c(cc2F)c(=O)c(C(=O)O)cn3C2CC2)CC1"
label_value = "True"

[[record]]
compound = "O=C(CCCN1CCC(O)(c2ccc(Br)cc2)CC1)c1ccc(F)cc1"
label_value = "False"

[[record]]
compound = "CN1CC(=O)N2[C@H](c3ccc4c(c3)OCO4)c3[nH]c4ccccc4c3C[C@@H]2C1=O"
label_value = "False"

[[record]]
compound = "CC(=O)Nc1ccc(O)cc1"
label_value = "False"

[[record]]
compound = "N=C(N)Nc1ccc(C(=O)Oc2ccc3cc(C(=N)N)ccc3c2)cc1 [Nafamostat Mesylate]"
label_value = "False"

[[record]]
compound = "CC1(C)O[C@@H]2C[C@H]3[C@@H]4C[C@H](F)C5=CC(=O)C=C[C@]5(C)[C@H]4[C@@H](O)C[C@]3(C)[C@]2(C(=O)CO)O1 [Flunisolide]"
label_value = "False"

[[record]]
compound = "CCN(CC)C(=O)N1CCN(C)CC1 [Diethylcarbamazine citrate]"
label_value = "False"

[[record]]
compound = "O=c1[nH]c(=O)n(C2CCCO2)cc1F (stereo unspecified)"
label_value = "False"

[[record]]
compound = "CNC(C)CCC=C(C)C (stereo unspecified) [Isometheptene mucate]"
label_value = "False"

[[record]]
compound = "Cc1cccc(Nc2ccccc2C(=O)O)c1C"
label_value = "False"

[[record]]
compound = "COc1cc(C(=O)NC2CCCNC2)cc(OC)c1OC (stereo unspecified) [Troxipide]"
label_value = "False"

[[record]]
compound = "CN1CCCC(n2nc(Cc3ccc(Cl)cc3)c3ccccc3c2=O)CC1 (stereo unspecified) [Azelastine hydrochloride]"
label_value = "False"

[[record]]
compound = "C[n+]1ccccc1/C=N/O [Pralidoxime chloride]"
label_value = "False"

[[record]]
compound = "CNCCC=C1c2ccccc2C=Cc2ccccc21"
label_value = "False"

[[record]]
compound = "Cn1nnnc1SCC1=C(C(=O)O)N2C(=O)[C@@H](NC(=O)[C@H](O)c3ccccc3)[C@H]2SC1 [Cefamandole sodium salt]"
label_value = "True"

[[record]]
compound = "CN1CCC(=C2c3ccccc3CCc3cccnc32)CC1 [Azatadine maleate]"
label_value = "False"

[[record]]
compound = "NC[C@H]1O[C@H](O[C@H]2[C@H](O)[C@@H](O[C@H]3O[C@H](CO)[C@@H](O)[C@H](N)[C@H]3O)[C@H](N)C[C@@H]2N)[C@H](N)C[C@@H]1O"
label_value = "False"

[[record]]
compound = "COC(=O)CCc1ccc(OCC(O)CNC(C)C)cc1 (stereo unspecified) [Esmolol hydrochloride]"
label_value = "False"

[[record]]
compound = "O=C(CCCN1CCC(O)(c2ccc(Cl)cc2)CC1)c1ccc(F)cc1"
label_value = "False"

[[record]]
compound = "CC[N+](C)(C)c1cccc(O)c1 [Edrophonium chloride]"
label_value = "False"

[[record]]
compound = "CC(C)(C)NC[C@H](O)COc1ccccc1C1CCCC1 [Penbutolol sulfate]"
label_value = "False"

[[record]]
compound = "C(=C\\c1ccccc1)/CN1CCN(C(c2ccccc2)c2ccccc2)CC1"
label_value = "False"

[[record]]
compound = "O=C(NCCNCC(O)COc1ccc(O)cc1)N1CCOCC1 (stereo unspecified) [Xamoterol hemifumarate]"
label_value = "False"

[[record]]
compound = "CN1CCC(=C2c3ccccc3CC(=O)c3sccc32)CC1 [Ketotifen fumarate]"
label_value = "False"

[[record]]
compound = "CC(C)(C)C(=O)OCOC(=O)[C@@H]1N2C(=O)[C@@H](/N=C/N3CCCCCC3)[C@H]2SC1(C)C [Pivmecillinam hydrochloride]"
label_value = "False"

[[record]]
compound = "CN(C)CC/C=C1\\c2ccccc2CSc2ccccc21 [Dosulepin hydrochloride]"
label_value = "False"

[[record]]
compound = "CN(C)C(=O)C(CCN1CCC(O)(c2ccc(Cl)cc2)CC1)(c1ccccc1)c1ccccc1 [Loperamide hydrochloride]"
label_value = "False"

[[record]]
compound = "O=S(=O)(O)CCS"
label_value = "False"

[[record]]
compound = "CCN(CC)CCOC(=O)C1(c2ccc([N+](=O)[O-])cc2)CCCC1 [Nitrocaramiphen hydrochloride]"
label_value = "False"

